Some compounds, each annotated with its measured remaining at 24 h, 10 µM.
Biological target: Recombinant soluble human NEP (Homo sapiens, UniProt P08473)
Construct: Recombinant soluble human NEP; purchased BioTechne, Wiesbaden, Germany
Sequence (P08473 52-750 limits assumed): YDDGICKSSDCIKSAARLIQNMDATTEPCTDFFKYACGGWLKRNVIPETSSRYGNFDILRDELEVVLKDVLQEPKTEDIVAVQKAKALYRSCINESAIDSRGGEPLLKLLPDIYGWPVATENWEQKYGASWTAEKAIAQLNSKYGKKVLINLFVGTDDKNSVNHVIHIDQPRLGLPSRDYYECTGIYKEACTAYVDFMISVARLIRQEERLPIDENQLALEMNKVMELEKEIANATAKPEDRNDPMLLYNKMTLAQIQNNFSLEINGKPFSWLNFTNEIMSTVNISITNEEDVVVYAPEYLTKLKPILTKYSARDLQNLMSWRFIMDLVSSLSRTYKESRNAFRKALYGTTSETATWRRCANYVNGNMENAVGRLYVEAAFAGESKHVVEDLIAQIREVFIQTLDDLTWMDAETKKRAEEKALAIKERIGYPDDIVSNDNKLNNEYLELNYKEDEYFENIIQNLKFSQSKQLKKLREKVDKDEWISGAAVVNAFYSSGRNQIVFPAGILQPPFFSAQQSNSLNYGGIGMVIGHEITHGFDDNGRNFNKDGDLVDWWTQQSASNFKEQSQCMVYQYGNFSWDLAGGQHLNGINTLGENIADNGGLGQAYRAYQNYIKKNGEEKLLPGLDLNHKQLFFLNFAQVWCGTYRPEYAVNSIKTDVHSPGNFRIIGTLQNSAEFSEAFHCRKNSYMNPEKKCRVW
Test: Proteolytic stability assay against NEP
Assay type: in vitro ADME
Conditions: recombinant soluble human NEP, human NEP 100 ng/mL, compound 10 µM, 37°C, LC-MS quantification, read-out: % intact compound remaining after 24h incubation
*1 amine or outer side, *2 acyl side, *3 side chain or, on linkers, in order; H or OH if unused. Where a SMILES comes first, the peptide text is derived from it. Bridges are numbered along the chain shown (N, C = ends). [ ]: non-standard residue; d: D form. The star is where a group is joined. DOTA = O=C(O)CN1CCN(CC(=O)O)CCN(CC(=O)*)CCN(CC(=O)O)CC1; Hyp = O=C(O)[C@@H]1C[C@@H](O)CN1; 3Pal = N[C@@H](Cc1cccnc1)C(=O)O; Cit = NC(=O)NCCC[C@H](N)C(=O)O; Nva = CCC[C@H](N)C(=O)O; Pentanoyl = CCCCC(=O)*; CO = O=C([*:1])[*:2]; NHBu = CCCCN*

[
  {
    "Compound": "CCCCC(=O)N[C@H]1CSSC[C@@H](C(N)=O)NC(=O)[C@H](CCC)NC(=O)[C@H]([C@@H](C)CC)NC(=O)[C@@H]2C[C@@H](O)CN2C(=O)[C@@H]2CCCN2C(=O)[C@H](Cc2ccccc2)NC(=O)[C@H](Cc2cccnc2)NC(=O)[C@H](CCCCNC(=O)CN2CCN(CC(=O)O)CCN(CC(=O)O)CCN(CC(=O)O)CC2)NC(=O)[C@H](CCCNC(N)=O)NC1=O [UPAR-138] (Pentanoyl-C[Cit]K(DOTA)[3Pal]FP[Hyp]I[Nva]C-NH2; disulfide 1-10)",
    "remaining at 24 h, 10 µM / %": 94
  },
  {
    "Compound": "CCCCNC(=O)N[C@H]1CSSC[C@@H](C(N)=O)NC(=O)[C@H](CCC)NC(=O)[C@H]([C@@H](C)CC)NC(=O)[C@@H]2C[C@@H](O)CN2C(=O)[C@@H]2CCCN2C(=O)[C@H](Cc2ccccc2)NC(=O)[C@H](Cc2ccc(O)cc2)NC(=O)[C@H](CCCCNC(=O)CN2CCN(CC(=O)O)CCN(CC(=O)O)CCN(CC(=O)O)CC2)NC(=O)[C@H](CCCNC(N)=O)NC1=O [UPAR-346] ({NHBu-CO}-C[Cit]K(DOTA)YFP[Hyp]I[Nva]C-NH2; disulfide 1-10)",
    "remaining at 24 h, 10 µM / %": 89
  }
]
